Recorded values, source the NIST ThermoML archive (doi:10.1021/je900550v).

# ASSAY_CONTEXT: 310.4 K; 101.33 kPa; Liquid; Vibrating tube method
MEASURED_ENDPOINT: mass density (kg/m3)
Answers are plain numbers, in kg/m3.

>  <MOLECULE>
CC(=O)[O-].C[NH2+]CCO [N-methyl-2-hydroxyethylammonium acetate]

>  <mass density [kg/m3]>
1093.47

$$$$
>  <MOLECULE>
CCCCC(=O)[O-].C[NH2+]CCO [2-hydroxy-N-methylethanaminium pentanoate]

>  <mass density [kg/m3]>
1007.99

$$$$
>  <MOLECULE>
CC(C)C(=O)[O-].C[NH2+]CCO [2-hydroxy-N-methylethanaminium isobutyrate]

>  <mass density [kg/m3]>
1035.46

$$$$
>  <MOLECULE>
C[NH2+]CCO.O=C[O-] [2-hydroxy-N-methylethanaminium formate]

>  <mass density [kg/m3]>
1121.41

$$$$
>  <MOLECULE>
CCCC(=O)[O-].C[NH2+]CCO [N-methyl-2-hydroxyethylammonium butanoate]

>  <mass density [kg/m3]>
1031.01

$$$$

API: the following record is the query input.
Ask | I'd like to know its mass density. The molecule in question is CCC(=O)[O-].C[NH2+]CCO [2-hydroxy-N-methylethanaminium propionate]
Reply | 1063.31
